- Test system: MS2 coat protein
- PROTOCOL TEXT: apparent KD of MS2 coat protein; designed switch direction (-1 OFF switch, 1 ON switch): 1; higher = weaker reporter binding
- CONDITION CONTEXT: Eterna round: R95; input ligand: microRNA oligo, concentration not stated

# CONSTRUCT SEQUENCE, apparent KD of MS2 coat protein / nM
measured = [
    ("GACAAUCUAUCUCAGGAUAUCAUGUCAAAGACAUGAGGAUCACCCAUGUACCAGGAAACUGGUUAUGAGAAGGGAGAUAGAUUGA [Mat - Same State 2 - Mod - D26] (puzzle: Same State 2)", 142),
    ("GGGCCAACGAGCGAGGAUAUGGCCUCGGACACAUGAGGAUCACCCAUGUCGAAAAGGUCAGGAGGCUAGAAGGCGUAAAAUGCCA [Tiqusoor] (puzzle: Same State 2)", 10.8),
    ("GGCUAUCGCAUUCGAUAGCCUGAGCAUGUACAUGAGGAUCACCCAUGUCAUGUACAGGCUUUUUGCUCGUACUUAUA (puzzle: Sensor for hsa-mir-208a)", 13.6),
    ("GUAGCAUGCAGGCAGGAUAUUCAUAUUAAAACAUGAGGAUCACCCAUGUAGGCCAGAAGGCCUUGGGAGAAGGGCCACAUGCUAC [Xeonanis - 17] (puzzle: Same State 2)", 595),
    ("UUGCGCUGUCGAGAGGAUAUGCGGUGAUGGACAUGAGGAUCACCCAUGUUAGCGAUAGCAUUACGGUAGAAGGCUCUACAGCUGC [salish99_ss2_r3_094] (puzzle: Same State 2)", 21.5),
    ("UCUUGGUUUUUGCUCGUUUUUUGUGUUGAACAUGAGGAUCACCCAUGUAUUGUACAGUCCAGUUUGAUAAUGGUCCG [JMF 56] (puzzle: Sensor for hsa-mir-208a)", 33.3),
    ("AGUCCAGCCUGAGCUGGACAAAAGCAUGUACAUGAGGAUCACCCAUGUCAUGUAUAAGCUUUUUGCUCGUCUUAAUA [Zipper 49 - 11] (puzzle: Sensor for hsa-mir-208a)", 11),
    ("AUAAUAAUAAGUGAGGAUAUGUUGAUAAAGACAUGAGGAUCACCCAUGUGAAAUAAAAUAAUAAUACAGAAGGCACAAUAAUAAA [JMF's solution 2] (puzzle: Same State 2)", 38.7),
    ("UCUUGGUUUUUGCUCGUUUUUUGUGUUGAACAUGAGGAUCACCCAUGUAUUGUACGGUCCGAUUUGAUAGUGGUCCG [JMF 20] (puzzle: Sensor for hsa-mir-208a)", 15.7),
    ("CUAUCUACAGGUUGCAGUGCUCGUCUUAUACAUGAGGAUCACCCAUGUUAUAGCCCGGUGCUUGCGCUGGGCUGAUU [JL ViennaUCT Tearor mod 2] (puzzle: Sensor for hsa-mir-208a)", 16.4),
    ("AAACUACAUGAGGAUCACCCAUGUGAAAACCGCAUAGGAUAUCCGCAGCAAUGAGCUGACGGAGAAGGGUGACCGG [Riater] (puzzle: Same State 1)", 103),
    ("GAGAAGAGGGACAAGGAUAUGUCAGGAGAGACAUGAGGAUCACCCAUGUAGAGGUUGGAGGAGAGACAGAAGGUGUCGGGAGCGA [JR_SS2_Sub013] (puzzle: Same State 2)", 73.7),
    ("AGUCCAGCCUGAGCUGGACAAAAGCAUGUACAUGAGGAUCACCCAUGUCAUGUAUAAGCUUUUUGCUCGUUUUAAUA [Zipper 49 - 16] (puzzle: Sensor for hsa-mir-208a)", 10.7),
    ("AGCGAGAUAGGCAAGGAUAUGUAGUUUGGCACAUGAGGAUCACCCAUGUCAAUCCAUUUUUUGGAACAGAAGGUGCAUUCUCUUU [ak fourth] (puzzle: Same State 2)", 12.2),
    ("AGUAUACAUGAGGAUCACCCAUGUCAGUAACUGACAGGAUAUGCGUUGCAUCACUGUAAUGCAGAAGGGUCUUGUA [Same State 1 - Mod of JMF's solution 1] (puzzle: Same State 1)", 181),
    ("CGUCCGGCCUGUGCUGGCCGGUUGCUUGUACAUGAGGAUCACCCAUGUUCUUGUGCUGGCUUUUUGCUCGUCUUGUG [salish99_mir208a_019] (puzzle: Sensor for hsa-mir-208a)", 19.2),
    ("AGUCCAGCAUGAGCUGGACAAAAGCAUGUACAUGAGGAUCACCCAUGUUCAUGUACAAGCUUUUUGCUCGUCUUAAA [Mat - hsa-mir-208a - Mod of JL - 45] (puzzle: Sensor for hsa-mir-208a)", 17.5),
    ("GACAAUCUAUCUGAGGAUAUCAUGAAAAAAACAUGAGGAUCACCCAUGUGCAGGAAAACUGCAUAUGAGAAGGCAGAUAGAUUGC [salish99_SS2_r3_012] (puzzle: Same State 2)", 443),
    ("CGGCGCUGUCGAGAGGAUAUGCGGUGAUGGACAUGAGGAUCACCCAUGUUAGCGAUAGCAUUACGGUAGAAGGCUCUACAGCUGC [Soteed Omei mod 4] (puzzle: Same State 2)", 27.9),
    ("GCUCUACAUGAGGAUCACCCAUGUUCGGACGCACGAGGAUAUGCAUGGGCGAAAGCUGGUGCAGAAGGCGUGGGAC [inDCorner] (puzzle: Same State 1)", 150),
]
